Listing of entries alongside the reported growth.
System: HS 578T breast
Assay: NCI-60 one-dose screen, 48 h (100 = growth as untreated, 0 = no growth, -100 = all killed)
Conditions: 10 µM
About 83,000 compounds went through this panel and 20% of them were active in at least one assay; those are over-represented in the sample as a whole.
Answer format: numeric, % implied, no suffix.

Solved cases (3 shown):
COc1ccc(C2=Cn3c(CCC(=O)c4nc5ccccc5[nH]4)nnc3SC2)cc1
92.8
O=C(CCCSc1nc(-c2ccc(Cl)cc2)cc(-c2ccc(Cl)cc2)n1)NO
53.5
COc1cc2c(Nc3ccc(S(N)(=O)=O)cc3)ncnc2c(OC)c1OC
96

Sample S=C(SSC(=S)N(c1ccccc1)c1ccccc1)N(c1ccccc1)c1ccccc1 — what was its growth? 108

Field request: growth | item: COc1ccc(-c2nn(-c3cccc(Cl)c3)cc2-c2c(C#N)c(=O)n3[nH]c(-c4ccc(C)cc4)nc3c2C#N)cc1 43.4

Could you tell me which growth is on file for COc1cc(/C=C/c2cc(/C=C/c3ccc(O)c(OC)c3)nc(N)n2)ccc1O ? -0.999

Field request: growth | item: CCn1cc(C(=O)O)c(=O)c2cc(F)c(N3CCNCC3)cc21 111

So what does the record say about growth for O=C(CCCSc1nc(-c2ccccc2)cc(-c2ccc(Cl)cc2)n1)NO ? 50.9

Which growth is reported for this compound? CC(=O)Nc1ccc2c(c1)C(=O)c1cccc(C(=O)O)c1-2 109

Which growth is listed for C[C@@H](O)[C@H]1C(=O)N2C(C(=O)O)=C(SCCN=CN)C[C@H]12 ? 24.3

====

Tested on: HT29 colon
Experiment: NCI-60 one-dose screen, 48 h
Details: 10 µM
Compounds without any hit were thinned out: in the full panel of roughly 83,000, 20% have a hit. The source made the active and inactive calls. The calls were made as follows: active = growth percent below 10; inactive = the rest.
Write down one outcome, taken from yes (1) for active, no (0) for inactive

Sample answers from the record:
O=C(Nc1ccc(OCc2nnc(-c3ccc(Cl)cc3)o2)c(F)c1)Nc1ccc(Cl)c(C(F)(F)F)c1
yes (1)
COc1cc(OC)c2c(=O)c(O)c(-c3ccccc3)oc2c1
no (0)
O=C1NC(=O)c2c(CCCSc3nc4ccccc4c(=O)n3CCc3ccccc3)cccc21
no (0)
O=C1/C(=C/c2ccc3c(c2)OCO3)SC(=S)N1C1c2ccccc2Oc2ccccc21
no (0)
CC1(C)N=C(N)N=C(N)N1c1cccc(C#N)c1
no (0)
Cc1c(C(N)=O)sc2c1c(=O)n(Cc1ccccc1)c1nnc(-c3ccc(Br)cc3)n21
no (0)
Cc1ccc(S(=O)(=O)N(C)CCCCCC(=O)O)cc1
no (0)
COc1cc2c(cc1OC)C(C(CCCCCC(CCC(C)C)C1NCCc3cc(OC)c(OC)cc31)CCC(C)C)NCC2 (stereo not given)
yes (1)
N#Cc1c(-c2ccc(Cl)cc2)csc1NC(=O)Nc1ccc(Cl)c(C(F)(F)F)c1
yes (1)

Now for another entry.
Short answer needed: outcome of this test for COc1ccc2c(c1)CC=C1[C@@H]2CC[C@]2(C)C(=O)/C(=N/O)C[C@@H]12 ? no (0)

====

Tested on: SNB-75 CNS
Experiment: NCI-60 one-dose screen, 48 h (100 = growth as untreated, 0 = no growth, -100 = all killed)
Conditions: 10 µM
About 83,000 compounds went through this panel and 20% of them were active in at least one assay; those are over-represented in the sample as a whole. The source made the active and inactive calls. Rule for the calls: active = growth percent below 10; inactive = the rest.
Entries and their growth

S=c1cnc2ccccc2[nH]1
86.5% (inactive)
c1cnc2[nH]cc(-c3nc(-c4ccsc4)cs3)c2c1
90.7% (inactive)
Cc1noc(C)c1CSc1ccccc1C(=O)N1CCN(c2cccc(C(F)(F)F)c2)CC1
76.2% (inactive)
CCCc1nc(C(C)(C)O)c(C(=O)O)n1Cc1ccc(-c2ccccc2-c2nn[nH]n2)cc1
66.9% (inactive)
c1ccc(CSc2ncccc2-c2nnc(SCCN3CCOCC3)o2)cc1
79.6% (inactive)

For the compound shown here, CCOC(=O)c1cc(C(=O)c2cc(OC)c(OC)c(OC)c2)n2nc(C)ccc12 , give the reported growth. 47.7% (inactive)

State the recorded growth for this entry: O=C(N/N=C/c1cc([N+](=O)[O-])ccc1O)c1cccc2ccccc12 55% (inactive)

Name the reported growth value associated with the compound COc1ccc(CCN2CCC(Nc3nc4ccccc4n3Cc3ccc(F)cc3)CC2)cc1 -29.9% (active)

Sample Nc1nc(-c2ccc(Cl)cc2)cc(-c2cc3ccccc3oc2=O)n1 — what was its growth? 68.4% (inactive)

# get_value(readout='growth', item= Nc1ccccc1NC(=O)c1ccc(CCCC(=O)Nc2ccc(C3CC3N)cc2)cc1 (centres undefined) ) 66.4% (inactive)

====

Test system: HCC-2998 colon
Experiment: NCI-60 one-dose screen, 48 h
Settings: 10 µM
This is part of a sample that, as a whole, favours compounds with a hit. Of some 83,000 tested, about 20% had one in any assay. Activity calls are given as the source filed them. How the source made its calls: active means growth percent below 10; inactive means the rest.
Permitted responses: y for active, n for inactive

Hi, do you know how Cc1cc(Cl)ccc1Nc1nc(C(F)(F)F)ccc1C(=O)N/N=C/c1c(Cl)cccc1Cl came out in this test? n

In this assay, the call recorded for O=C(CNc1nnc(-c2cccnc2SCc2ccccc2)s1)Nc1nc(Cl)cc(Cl)n1 was what? n

Hi, sorry to bother you, what did the test record for O=C(O)c1ccc(-n2cc(CNc3ccc(Cl)cc3)c(-c3ccccc3)n2)cc1 ? n

Tell me the recorded outcome of this test for COc1ccc(/C(C#N)=C/c2ccccc2OC)cc1 . n

Given CC(C)(C)OC(=O)N1CCc2c(sc3ncnc(N/N=C/c4cccc(Br)c4)c23)C1 , state the outcome it received in this test. n

Called result for C#C[C@]1(O)CCC2C3CCc4cc(OC5CCCC5)ccc4C3CC[C@@]21C (stereo not given in full) n

Please let me know the test result on file for COc1cc(-c2nn(-c3cccc(NC(=O)NCCNC(=O)c4ccccc4)c3)cc2-c2ccncc2)ccc1Cl . n

Just curious, what result did Nc1c(Br)cc(Br)c2c1[nH]c(=O)c1ccccc12 get here? n

Call for entry Nc1cc(-c2ccc(Cl)cc2)nn1-c1nc2ccccc2nc1Cc1ccccc1 : n

====

growth values by entry
Tested on: 786-0 renal
Assay: NCI-60 one-dose screen, 48 h (100 = growth as untreated, 0 = no growth, -100 = all killed)
Settings: 10 µM
About 83,000 compounds went through this panel and 20% of them were active in at least one assay; those are over-represented in the sample as a whole.
# unit: % | format: bare number

Guide cases for growth, answers given:
Nc1nccc(OCCO)n1
102
C=CCn1c(SCC(=O)Nc2ccc(C(=O)/C=C/c3ccc(OC)cc3)cc2)nnc1-c1ccc(OC)c(OC)c1
79.9
COc1cc2cc(Oc3ccc(NC(=O)Nc4ccc(C(F)(F)F)cc4)cc3)c(C)nc2cc1OC
74.9
CCOC(=O)c1cc(C(=O)c2cc(OC)cc(OC)c2)n2ncc3ccccc3c12
5.34
CCOc1ccccc1/C=N\N=C(\N)N/N=C/c1ccccc1OCC
21.4
Cc1nc2n(c(=O)c1CCN1CCC(c3noc4cc(F)ccc34)CC1)CCC[C@@H]2O
107
CCOC(=O)C1=CSC2=NC3=C(CCC/C3=C\c3cc(OC)c(OC)c(OC)c3)C(c3cc(OC)c(OC)c(OC)c3)N12 (stereo not drawn)
91.3
CC1=NN(C(=O)c2nn(-c3ccc(Cl)cc3)cc2O)C(=O)C1
56.5

Name the recorded growth for COc1ccc(-c2nn(-c3cccc(Cl)c3)cc2-c2cc(-c3ccccc3)[nH]c(=O)c2C#N)cc1 . 6.65

Can you look up the measured growth of C=CCSC(CC)(CC)C(=O)NC for me? 104

Recorded growth of CCn1c(SCCc2ccccc2)nnc1-c1nn(-c2ccc(Cl)cc2Cl)c(-c2ccc(Cl)cc2)c1C , please. 72.9

I'd like to know its growth. The compound in question is NC1=NC(c2ccc(Cl)cc2)C2=C(N1)/C(=C/c1ccc(Cl)cc1)CCC2 (stereo not drawn) 90.4

Could you share which growth value was measured for COc1ccc(C2=Cn3c(CCC(=O)c4nc5ccccc5[nH]4)nnc3SC2)cc1 ? 104

====

System: HOP-92 NSCLC
Assay: NCI-60 one-dose screen, 48 h (100 = growth as untreated, 0 = no growth, -100 = all killed)
Settings: 10 µM
Compounds without any hit were thinned out: in the full panel of roughly 83,000, 20% have a hit.
Respond with label 1 for growth values of 40% and above, label 0 for values below.

Cc1cc(C(C#N)c2ccc(Cl)cc2)c(Cl)cc1NC(=O)c1cc(I)cc(I)c1O (centres undefined)
label 0

growth >= 40% for CCCCC(CC)CN=C(N)NC(N)=NCCCCCCN=C(N)NC(N)=NCC(CC)CCCC (centres undefined) ? label 0

Reported growth at or above 40%? COc1cc2c(cc1OC)C(C(CCCCCC(CCC(C)C)C1NCCc3cc(OC)c(OC)cc31)CCC(C)C)NCC2 (centres undefined) label 0
